Where do these numbers come from? They come from PubChem BioAssay AID602.

# Method description: MRP1 drug-resistance reversers in H69AR cells – cell-based, doxorubicin co-treatment, primary screen (AID 602);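 note: viability without doxorubicin minus viability with 2 µM doxorubicin for each compound; larger differential means the compound sensitizes cells more to doxorubicin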
# Test context: H69AR cells + 2 uM doxorubicin, CellTiter-Glo, 72 h; at 10 µM; active compounds read high
About 35 (0.04%) of roughly 85,000 compounds were called active. The entries come from a sample that favours actives as a whole.
Test readout: differential viability (reversal) (%)
Give a bare numeral; the unit % is implied.

Here is how some compounds turned out for differential viability (reversal).
O=C(CCN1C(=O)c2ccccc2C1=O)Nc1cccc(F)c1 ... 0
Cn1c(SCC(=O)C(C)(C)C)nnc1-c1ccccn1 ... 3.29
CCN1C(=O)/C(=C2/Sc3ccc(OC)cc3N2C)SC1=Nc1ccc(C)cc1 ... -4.5

Qu. Any idea what differential viability (reversal) was measured for O=C(NCC1CCC(C(=O)O)CC1)OCc1ccccc1 (configuration not stated) ?
Ans. 6.33

Qu. Queued: CC(C)CC(N=C1NC(C)(C)Cc2ccccc21)C(=O)O (configuration not stated)
Ans. 9.71

Qu. O=C(CSc1nc2cccnc2n1Cc1ccccc1)N1CCc2ccccc21 ?
Ans. 10.8

Qu. Thanks! And Nc1nc(C23CC4CC(CC(C4)C2)C3)cs1 ?
Ans. -3.46

Qu. Similarly, Cc1cccc(N2CCN(C(c3ccc(N(C)C)cc3)c3nnnn3C(C)(C)C)CC2)c1C (configuration not stated) ?
Ans. 2.35

Qu. And what about the compound CC(C)NC(=O)CSc1ccccc1C(=O)NCc1ccc2c(c1)OCO2 ?
Ans. 5
